test: Cytotoxicity against human HEL cells assessed as alteration of cell morphology by microscopy; type: cell-based
For each of the molecules below, state its MCC.

Hi, could you look up MCC for each item in my list?
1. CCCCCc1ccc(-c2cc3cn([C@@H]4O[C@H](CO)[C@@H](O)C4(F)F)c(=O)nc3o2)cc1
2. CCCCCc1ccc(-c2cc3cn([C@H]4C[C@H](O)[C@@H](CO)O4)c(=O)nc3o2)cc1 [CF1743]
3. CCCCCc1ccc(-c2cc3cn([C@@H]4O[C@H](CO)[C@@H](O)[C@H]4F)c(=O)nc3o2)cc1
4. CCCCCc1ccc(-c2cc3cn([C@@H]4O[C@H](CO)[C@@H](O)[C@@H]4F)c(=O)nc3o2)cc1

Result string:
["≥ 50 µM", "≥ 50 µM", "> 50 µM", "> 50 µM"]

---

For each of the molecules below, state its IC50.
molecular target: UniProt:P0C0E6; experiment: Displacement of [CH3-3H]deoxythymidine from Varicella zoster virus recombinant thymidine kinase after 30 mins
Sequence (P0C0E6 whole entry): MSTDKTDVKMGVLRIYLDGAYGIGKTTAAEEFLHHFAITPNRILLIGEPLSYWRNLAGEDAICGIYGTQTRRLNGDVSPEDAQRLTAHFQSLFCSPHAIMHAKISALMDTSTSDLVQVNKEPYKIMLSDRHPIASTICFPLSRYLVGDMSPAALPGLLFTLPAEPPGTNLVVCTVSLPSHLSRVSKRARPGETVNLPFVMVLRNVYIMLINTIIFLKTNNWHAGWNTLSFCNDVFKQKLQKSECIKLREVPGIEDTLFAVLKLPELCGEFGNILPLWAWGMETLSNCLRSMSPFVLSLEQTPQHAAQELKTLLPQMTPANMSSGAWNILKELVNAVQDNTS
Numbers only, in µM.

Take a look at these entries with their results.
[
  {
    "SMILES_DATA": "CCCCCc1ccc(-c2cc3cn([C@@H]4O[C@H](CO)[C@@H](O)[C@H]4F)c(=O)nc3o2)cc1",
    "MEASURED_ENDPOINT": "IC50",
    "MEASURED_VALUE": 2.7
  },
  {
    "SMILES_DATA": "CCCCCc1ccc(-c2cc3cn([C@@H]4O[C@H](CO)[C@@H](O)[C@@H]4F)c(=O)nc3o2)cc1",
    "MEASURED_ENDPOINT": "IC50",
    "MEASURED_VALUE": 38
  },
  {
    "SMILES_DATA": "CCCCCc1ccc(-c2cc3cn([C@@H]4O[C@H](CO)[C@@H](O)C4(F)F)c(=O)nc3o2)cc1",
    "MEASURED_ENDPOINT": "IC50",
    "MEASURED_VALUE": 13
  }
]

Shifting focus to the molecule that follows.
IC50 for CCCCCc1ccc(-c2cc3cn([C@H]4C[C@H](O)[C@@H](CO)O4)c(=O)nc3o2)cc1 is 3.3

---

system: Human alphaherpesvirus 3; assay: Antiviral activity against thymidine kinase deficient Varicella zoster virus 07/1 infected human HEL cells assessed as reduction in viral plaque formation after 5 days; type: functional, organism-based; conditions: Human alphaherpesvirus 3, 07/1, HEL, 120 h
For each of the compounds below, state its EC50.

Take a look at these entries with their results.
[
  {
    "SMILES_DATA": "CCCCCc1ccc(-c2cc3cn([C@@H]4O[C@H](CO)[C@@H](O)[C@H]4F)c(=O)nc3o2)cc1",
    "MEASURED_ON": "Human alphaherpesvirus 3",
    "EC50": "> 20 µM"
  },
  {
    "SMILES_DATA": "CCCCCc1ccc(-c2cc3cn([C@@H]4O[C@H](CO)[C@@H](O)C4(F)F)c(=O)nc3o2)cc1",
    "MEASURED_ON": "Human alphaherpesvirus 3",
    "EC50": "> 50 µM"
  }
]

Shifting focus to the compound that follows.
EC50 for CCCCCc1ccc(-c2cc3cn([C@@H]4O[C@H](CO)[C@@H](O)[C@@H]4F)c(=O)nc3o2)cc1 is > 50 µM

Origin of the recorded values: ChEMBL document CHEMBL1156114
